Below, each of the binders is paired with its reported IC50 values on 697 cells (in vitro cell killing) value.
# target entity: human ROR1, full length, on cells (human, UniProt Q01973 30-937)
# Sequence (Q01973 30-937): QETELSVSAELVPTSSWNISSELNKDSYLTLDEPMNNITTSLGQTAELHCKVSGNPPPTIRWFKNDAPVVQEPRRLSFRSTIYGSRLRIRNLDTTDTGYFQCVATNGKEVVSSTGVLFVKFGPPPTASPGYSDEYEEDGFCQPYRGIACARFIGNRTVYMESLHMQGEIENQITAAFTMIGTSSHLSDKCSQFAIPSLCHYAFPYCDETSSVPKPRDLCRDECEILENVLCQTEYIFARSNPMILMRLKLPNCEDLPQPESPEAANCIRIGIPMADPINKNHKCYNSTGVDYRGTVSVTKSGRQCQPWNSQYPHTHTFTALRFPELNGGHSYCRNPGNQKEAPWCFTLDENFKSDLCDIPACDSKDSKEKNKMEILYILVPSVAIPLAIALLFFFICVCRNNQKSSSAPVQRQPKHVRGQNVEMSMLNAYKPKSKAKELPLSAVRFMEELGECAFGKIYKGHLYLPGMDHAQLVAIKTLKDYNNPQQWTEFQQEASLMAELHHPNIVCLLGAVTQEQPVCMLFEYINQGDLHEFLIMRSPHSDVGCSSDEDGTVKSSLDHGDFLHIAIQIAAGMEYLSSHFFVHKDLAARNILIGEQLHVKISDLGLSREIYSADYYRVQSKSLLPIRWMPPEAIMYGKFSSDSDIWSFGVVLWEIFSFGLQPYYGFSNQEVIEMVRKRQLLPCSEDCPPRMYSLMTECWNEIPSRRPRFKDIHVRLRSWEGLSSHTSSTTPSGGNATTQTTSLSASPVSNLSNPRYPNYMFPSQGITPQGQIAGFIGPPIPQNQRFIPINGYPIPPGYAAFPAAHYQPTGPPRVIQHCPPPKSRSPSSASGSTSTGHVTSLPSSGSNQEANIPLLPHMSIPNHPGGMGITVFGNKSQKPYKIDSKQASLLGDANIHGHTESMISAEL
# test description: cell-based or functional assay
Express the result in µg/mL but write the number alone.

Examples with answers:
>>> measured_value("HuXBR1-402(3)-G5-PNU (Adc456) (other, Gly5-EDA-PNU joined by sortase to the C-terminal G5SLPETG tag of the full light chain; Gly5-EDA-PNU joined by sortase to the C-terminal LPETG tag of the full heavy chain) VH: QVQLRESGPGLVKPSETLSLTCTVSGFDISSYYMSWVRQPPGKGLEWIGAIGISGNAYYASWAKSRVTISRDTSKNQFSLKLSSVTAADTAVYYCARDHPTYGMDLWGPGTLVTVSS VL: SYELTQPLSVSVALGQTARITCEGNNIGSKAVHWYQQKPGQAPVLVIYDDDERPSGIPERFSGSNSGNTATLTISRAQAGDEADYYCQVWDSSAYVFGGGTKLTVLG")
0.0981
>>> measured_value("HuXBR1-402(8)-G5-PNU (Adc457) (other, Gly5-EDA-PNU joined by sortase to the C-terminal G5SLPETG tag of the full light chain; Gly5-EDA-PNU joined by sortase to the C-terminal LPETG tag of the full heavy chain) VH: QVQLQESGPGLVKPSETLSLTCTVSGFDISSYYMSWVRQPPGKGLEWIGAIGISGNAYYASWAKSRVTISRDTSKNQFSLKLSSVTAADTAVYYCARDHPTYGMDLWGPGTLVTVSS VL: SYELTQPPSVSVSPGQTAIITCEGNNIGSKAVHWYQQKPGLSPVLVIYDDDERPSGIPERFSGSNSGNTATLTVSGTQDMDEADYYCQVWDSSAYVFGGGTKLTVLG")
0.164
>>> measured_value("HuXBR1-402(19)-G5-PNU (Adc460) (other, Gly5-EDA-PNU joined by sortase to the C-terminal G5SLPETG tag of the full light chain; Gly5-EDA-PNU joined by sortase to the C-terminal LPETG tag of the full heavy chain) VH: QVQLQESGPGLVKPSETLSLTCTVSGFDISSYYMSWVRQPPGNGLEWIGAIGISGNAYYASWAKSRVTISRDTSKNQFSLKLSSVTAADTAVYYCARDHPTYGMDLWGPGTLVTVSS VL: SYELTQPPSVSVAPGKTARITCEGNNIGSKAVHWYQQKPGQAPVLVIYDDDERPSGIPERFSGSNSGNTATLTISRVEAGDEADYYCQVWDSSAYVFGGGTKLTVLG")
0.0917
>>> measured_value("XBR1-402-G5-PNU antibody drug conjugate (other, Gly5-EDA-PNU joined by sortase to the LPET of the C-terminal G5SLPETG tag of the full light chain; Gly5-EDA-PNU (PNU-159682 derivative) joined by sortase to the LPET of the C-terminal LPETG tag of the full heavy chain) VH: QEQQKESGGGLFKPTDTLTLTCTASGFDISSYYMSWVRQAPGNGLEWIGAIGISGNAYYASWAKSRSTITRNTNLNTVTLKMTSLTAADTATYFCARDHPTYGMDLWGPGTLVTVSS VL: SYELTQLPSVSVSLGQTARITCEGNNIGSKAVHWYQQKPGLAPGLLIYDDDERPSGVPDRFSGSNSGDTATLTISGAQAGDEADYYCQVWDSSAYVFGGGTQLTVTG")
0.212
>>> measured_value("HuXBR1-402(26)-G5-PNU (Adc461) (other, Gly5-EDA-PNU joined by sortase to the C-terminal G5SLPETG tag of the full light chain; Gly5-EDA-PNU joined by sortase to the C-terminal LPETG tag of the full heavy chain) VH: QVQLQESGPGLVKPSETLSLTCTVSGFDISSYYMSWVRQPPGNGLEWIGAIGISGNAYYASWAKSRVTISRDTSKNQFSLKLSSVTAADTAVYYCARDHPTYGMDLWGPGTLVTVSS VL: SYELTQPLSVSVALGQTARITCEGNNIGSKAVHWYQQKPGLAPVLVIYDDDERPSGIPERFSGSNSGNTATLTISRAQAGDEADYYCQVWDSSAYVFGGGTQLTVLG")
0.0939
>>> measured_value("HuXBR1-402(17)-G5-PNU (Adc459) (other, Gly5-EDA-PNU joined by sortase to the C-terminal G5SLPETG tag of the full light chain; Gly5-EDA-PNU joined by sortase to the C-terminal LPETG tag of the full heavy chain) VH: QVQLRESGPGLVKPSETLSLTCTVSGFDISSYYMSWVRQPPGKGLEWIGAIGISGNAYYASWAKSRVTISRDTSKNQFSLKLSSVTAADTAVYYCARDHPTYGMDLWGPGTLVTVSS VL: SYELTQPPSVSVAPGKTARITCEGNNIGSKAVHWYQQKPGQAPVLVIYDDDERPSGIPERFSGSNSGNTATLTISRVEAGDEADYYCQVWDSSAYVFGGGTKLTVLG")
0.0706

Consider now this further binder.
Look up IC50 values on 697 cells (in vitro cell killing) for this binder: HuXBR1-402(15)-G5-PNU (Adc458) (other, Gly5-EDA-PNU joined by sortase to the C-terminal G5SLPETG tag of the full light chain; Gly5-EDA-PNU joined by sortase to the C-terminal LPETG tag of the full heavy chain) VH: QVQLQESGPGLVKPSETLSLTCTVSGFDISSYYMSWVRQPPGKGLEWIGAIGISGNAYYASWAKSRVTISRDTSKNQFSLKLSSVTAADTAVYYCARDHPTYGMDLWGPGTLVTVSS VL: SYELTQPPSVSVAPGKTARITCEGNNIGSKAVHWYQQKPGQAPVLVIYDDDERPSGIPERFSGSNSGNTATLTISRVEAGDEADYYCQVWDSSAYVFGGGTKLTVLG 0.106
